All figures here come from PubChem BioAssay (NCI).

System: UACC-62 melanoma
Assay: NCI-60 one-dose screen, 48 h (100 = growth as untreated, 0 = no growth, -100 = all killed)
Settings: 10 µM unless noted
Experimental: Growth inhibition of the UACC-62 human tumor cell line is measured as a screen for anti-cancer activity. Cells are grown in 96 well plates and exposed to the test compound for 48 hours. Compounds are tested at a single concentration, which is 10^-5 M for most compounds. The reported endpoint is percent growth (GI% or GIPRCNT), where numbers from 0 - 100% represent growth inhibition, and numbers from -100% - 0 represent cell death. For example, a value of 40 represents 60% growth inhibition. […]
This is part of a sample that, as a whole, favours compounds with a hit. Of some 83,000 tested, about 20% had one in any assay.
growth under 80% gets label 1, anything at or over 80% gets label 0.

Compound	Label value
CCCCN(CCCC)C(=O)CC	label 0
CC(=O)Oc1cccc(S(=O)(=O)n2cc(C(=O)C(=O)Nc3ccncc3)c3ccccc32)c1	label 1
C=C(C)[C@@H]1C[C@@H]2Cc3cc(F)ccc3N1O2	label 0

[Q] Lab log: compare recorded growth with 80%; is it strictly lower for c1ccc(Nc2nc(Nc3ccccc3)nc(Nc3ccccc3)n2)cc1 ?
[A] label 0

[Q] Lab log: compare recorded growth with 80%; is it strictly lower for O=C(c1ccccc1)C1OC1c1ccc([N+](=O)[O-])cc1 (configuration not stated) ?
[A] label 1

[Q] Lab log: compare recorded growth with 80%; is it strictly lower for NC(=S)N/N=C1\CCCC(C(F)(F)F)C1 (configuration not stated) ?
[A] label 0

----------
Examples of compounds with documented growth follow.
System: M14 melanoma
Test: NCI-60 one-dose screen, 48 h (100 = growth as untreated, 0 = no growth, -100 = all killed)
Details: 10 µM unless noted
Compounds without any hit were thinned out: in the full panel of roughly 83,000, 20% have a hit.
# output: bare number, implied unit %

Check out these entries, answers already filled in.
Compound	Value units	growth
COc1cc(-c2nn(-c3cccc(NC(=O)Nc4cccc(C(F)(F)F)c4)c3)cc2-c2ccncc2)ccc1Cl	%	-61.5
CC(C)(C)Nc1c(-c2cccs2)nc2ncccn12	%	106
COc1ccc(/C=C2\N=C(c3ccccc3)N(C(=O)c3ccccc3O)NC2=O)cc1	%	98.8
COc1cc(-c2nn(-c3cccc(NC(=O)Nc4ccc(Cl)c(Cl)c4)c3)cc2-c2ccncc2)ccc1Cl	%	0.293
CCO/C=N/C1=C(C#N)C(c2ccc(Cl)cc2)c2c(c3ccccc3n(C)c2=O)O1 (stereo unspecified)	%	57.2

We now examine a further compound.
Readout growth for CCOC(=O)C1C(=O)C=C(c2ccc(OC)cc2)CC1c1sc(N(C)Cc2ccccc2)nc1Cl (stereo unspecified) , test system M14 melanoma, was 87.6

----------
Tested on: OVCAR-4 ovarian
Assay: NCI-60 one-dose screen, 48 h (100 = growth as untreated, 0 = no growth, -100 = all killed)
Details: 10 µM unless noted
This is part of a sample that, as a whole, favours compounds with a hit. Of some 83,000 tested, about 20% had one in any assay.
just bin them by growth: one (below 50%), two (50% to below 90%), three (90% or more)

Some entries whose results are on file:
Compound	Tgt	Label value
CN(CCCCCl)P(=O)(OCc1ccc([N+](=O)[O-])o1)C(F)(F)C[C@H](NC(=O)CNC(=O)c1ccc(N=[N+]=[N-])cc1)C(=O)NCCc1ccc(O)cc1 (some centres undefined)	OVCAR-4 ovarian	three
COc1ccc(-c2cc(-c3ccccc3)nc(SCCCC(=O)NO)n2)cc1OC	OVCAR-4 ovarian	one
COc1ccc(Nc2ncccc2C(=O)NCc2cn(Cc3cccc(Oc4ccccc4)c3)nn2)c(OC)c1	OVCAR-4 ovarian	two
COc1ccc(-c2cc3c(OC)c(OC)c(OC)cc3oc2=O)cc1	OVCAR-4 ovarian	two
Cc1ccc(/C=C2\CN(C(=O)CCN3CCC(=NO)CC3)C/C(=C\c3ccc(C)cc3)C2=O)cc1	OVCAR-4 ovarian	one

[Q] For the record O=C(NCCCNc1nccc(-n2ccc3cccnc32)n1)c1c(F)cccc1F , report the class its growth corresponds to.
[A] three

[Q] For the record CCCCN(CCCC)C(=O)CC , report the class its growth corresponds to.
[A] three

[Q] For the record C=C(C)[C@@H]1C[C@@H]2Cc3cc(F)ccc3N1O2 , report the class its growth corresponds to.
[A] three

[Q] For the record O=C1/C(=C/c2ccc(Cl)cc2)CN(C(=O)CCN2CCC(=NO)CC2)C/C1=C\c1ccc(Cl)cc1 , report the class its growth corresponds to.
[A] one

[Q] For the record O=C(O)/C=C/C(=O)c1ccc(Cl)cc1 , report the class its growth corresponds to.
[A] three

[Q] For the record CC(C)(C)n1cc(-c2ccnc(NCCCNS(=O)(=O)c3ccc(F)cc3)c2)c(-c2cccc(O)c2)n1 , report the class its growth corresponds to.
[A] two

[Q] For the record COc1ccc(C2C=C(c3ccc(Cl)cc3)N=C3SC=C(C)N32)c(Br)c1 (centres undefined) , report the class its growth corresponds to.
[A] one
